# Experiment description: Human Liver Microsomal Stability (Test C)
# Type: in vitro ADME
# Run conditions: human, liver microsomes
Value kind: microsomal CLint (µL/min/mg)

{"Compound": "COc1cc(F)c(O[C@H]2CC[C@@](C)(C(=O)O)CC2)cc1C(=O)N[C@@H]1CCC[C@@H]1C(=O)NC(C(C)C)C(C)C", "Value kind": "microsomal CLint", "Result operator": "=", "Reading": 94}
{"Compound": "COc1cc(F)c(O[C@H]2CC[C@@](C)(C(=O)O)CC2)cc1C(=O)N[C@@H]1COC[C@@H]1C(=O)Nc1ccc(F)c(C(F)(F)F)c1", "Value kind": "microsomal CLint", "Result operator": "=", "Reading": 13}
{"Compound": "CCC(C)(C)CNC(=O)[C@H]1[C@@H]2CC[C@@H](C2)[C@H]1NC(=O)c1cc(O[C@H]2CC[C@@](C)(C(=O)O)CC2)c(F)cc1OC", "Value kind": "microsomal CLint", "Result operator": "=", "Reading": 27}
{"Compound": "COc1cc(F)c(O[C@H]2CC[C@@](C)(C(=O)O)CC2)cc1C(=O)N[C@@H]1CCC[C@@H]1C(=O)NCC1(C)CCC1", "Value kind": "microsomal CLint", "Result operator": "<", "Reading": 3}
{"Compound": "COc1cc(F)c(O[C@H]2CC[C@@](C)(C(=O)O)CC2)cc1C(=O)N[C@@H]1[C@H]2CC[C@H](C2)[C@@H]1C(=O)NCC(C)(C)C(F)(F)F", "Value kind": "microsomal CLint", "Result operator": "=", "Reading": 13}
{"Compound": "COc1cc(F)c(O[C@H]2CC[C@@H](C(=O)O)CC2)cc1C(=O)N[C@@H]1[C@H]2CC[C@H](C2)[C@@H]1C(=O)Nc1ccc(F)c(S(F)(F)(F)(F)F)c1", "Value kind": "microsomal CLint", "Result operator": "=", "Reading": 43}
{"Compound": "COc1cc(C#N)c(O[C@H]2C[C@@]3(C2)C[C@H](C(=O)O)C3)cc1C(=O)N[C@@H]1[C@H]2CC[C@H](C2)[C@@H]1C(=O)NCC1(C)CCC1 (single isomer, unassigned)", "Value kind": "microsomal CLint", "Result operator": "=", "Reading": 35}
{"Compound": "COc1cc(C#N)c(O[C@H]2CC[C@@](C)(C(=O)O)CC2)cc1C(=O)N[C@H]1C(C(=O)NCC(C)(C)C)[C@@H]2CC[C@H]1C2 (stereo partly shown)", "Value kind": "microsomal CLint", "Result operator": "<", "Reading": 3}
{"Compound": "COc1cc(F)c(O[C@H]2CC[C@@H](C(=O)O)CC2)cc1C(=O)N[C@@H]1[C@H]2CC[C@H](C2)[C@@H]1C(=O)NC1CC(F)(F)C1", "Value kind": "microsomal CLint", "Result operator": "<", "Reading": 3}
{"Compound": "COc1cc(Cl)c(O[C@H]2CC[C@@](C)(C(=O)O)CC2)cc1C(=O)N[C@@H]1[C@H]2CC[C@H](C2)[C@@H]1C(=O)NCC(C)(C)C(F)(F)F", "Value kind": "microsomal CLint", "Result operator": "=", "Reading": 18}
{"Compound": "COc1cc(F)c(C[C@H]2CC[C@@](C)(C(=O)O)CC2)cc1C(=O)N[C@@H]1[C@H]2CC[C@H](C2)[C@@H]1C(=O)NCC1(C)CCC1", "Value kind": "microsomal CLint", "Result operator": "=", "Reading": 78}
{"Compound": "CCC(CC)CNC(=O)[C@H]1CCC[C@H]1NC(=O)c1cc(O[C@H]2CC[C@@](C)(C(=O)O)CC2)c(F)cc1OC", "Value kind": "microsomal CLint", "Result operator": "=", "Reading": 22}
{"Compound": "COc1cc(F)c(O[C@H]2CC[C@@](C)(C(=O)O)CC2)cc1C(=O)Nc1cnccc1C(=O)NCC1(C)CCC1", "Value kind": "microsomal CLint", "Result operator": "<", "Reading": 3}
{"Compound": "CC1(CNC(=O)[C@H]2[C@@H]3CC[C@@H](C3)[C@H]2NC(=O)c2cc(O[C@H]3CC[C@@](C)(C(=O)O)CC3)c(C#N)cc2F)CCC1", "Value kind": "microsomal CLint", "Result operator": "=", "Reading": 16}
{"Compound": "CC(C)Oc1cc(F)c(O[C@H]2CC[C@@](CO)(C(=O)O)CC2)cc1C(=O)N[C@@H]1[C@H]2CC[C@H](C2)[C@@H]1C(=O)NCC1(C)CCC1", "Value kind": "microsomal CLint", "Result operator": "=", "Reading": 35}
{"Compound": "COc1cc(F)c(O[C@H]2CC[C@@H](C(=O)O)CC2)cc1C(=O)N[C@@H]1[C@H]2CC[C@H](C2)[C@@H]1C(=O)Nc1cc(C(F)(F)F)ncn1", "Value kind": "microsomal CLint", "Result operator": "=", "Reading": 18}
{"Compound": "COc1cc(F)c(-c2ccc(CCS(N)(=O)=O)cc2)cc1C(=O)N[C@H]1[C@H]2CC[C@H](C2)[C@H]1C(=O)Nc1cccc(S(=O)(=O)C(F)(F)F)c1 (single isomer, unassigned)", "Value kind": "microsomal CLint", "Result operator": "=", "Reading": 65}
{"Compound": "COc1cc(F)c(O[C@H]2CC[C@@](C)(C(=O)O)CC2)cc1C(=O)NC1C2CCC(C2)C1C(=O)Nc1cccc(S(=O)(=O)C(F)(F)F)c1 (single isomer, unassigned)", "Value kind": "microsomal CLint", "Result operator": "=", "Reading": 12}
{"Compound": "COc1cc(C#N)c(O[C@H]2CC[C@@](C)(C(=O)O)CC2)cc1C(=O)N[C@@H]1[C@H]2CC[C@H](C2)[C@@H]1C(=O)NCC(C)(F)F", "Value kind": "microsomal CLint", "Result operator": "<", "Reading": 3}
{"Compound": "CCC1(CNC(=O)[C@H]2[C@@H]3CC[C@@H](C3)[C@H]2NC(=O)c2cc(O[C@H]3CC[C@@](C)(C(=O)O)CC3)c(C#N)cc2OC)CCC1", "Value kind": "microsomal CLint", "Result operator": "=", "Reading": 64}
{"Compound": "COc1cc(C#N)c(O[C@H]2CC[C@@](C)(C(=O)O)CC2)cc1C(=O)N[C@@H]1[C@@H]2CC[C@@H](C2)[C@@H]1C(=O)NCC1(C)CCC1", "Value kind": "microsomal CLint", "Result operator": "=", "Reading": 34}
{"Compound": "COc1cc(F)c(-c2ccc(C(=O)O)cc2)cc1C(=O)N[C@@H]1[C@H](C(=O)Nc2cccc(S(=O)(=O)C(F)(F)F)c2)[C@H]2C=C[C@@H]1C2 (single isomer, unassigned)", "Value kind": "microsomal CLint", "Result operator": "=", "Reading": 9.9}

Provenance of the data: patent US11667602B2
